B1: ADAMTS4 (parent)
chain: HVDPEEPWSPCSARFITDFLDNGY

Variants of: B1
Assay: protein stability index of a GFP-peptide fusion (GPS, HEK-293T) (PSI 1-6); higher = more stable;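 note: lentivirally expressed fusions sorted by FACS into six bins by GFP to DsRed ratio, PSI derived from sequencing read proportions per bin multiplied by bin number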
Settings: c terminus: a fixed tail appended
Tag: Criterion met if measured protein stability index is not below 2, Criterion not met if it is.

Evaluate T17N : protein stability index at minimum 2?
Criterion not met

Evaluate G23T : protein stability index at minimum 2?
Criterion met

Evaluate P4T : protein stability index at minimum 2?
Criterion not met

Evaluate I16Y : protein stability index at minimum 2?
Criterion not met

Evaluate A13I : protein stability index at minimum 2?
Criterion met
